Test system: Phospho-ERK levels in KYSE-520 cells
measurement.description: pERK AlphaScreen Protocol
Format: cell-based
condition.info: Homo sapiens, KYSE-520, 2 h, KYSE-520 cells, 2 hr compound incubation, phospho-ERK1/2 AlphaScreen SureFire; read-out: PERK Avg IC50
Mark Satisfied only for IC50 values smaller than 100 nM; exact matches and larger values are Not satisfied.

These solved cases illustrate the format of a correct answer.
CCC1(N)CCN(c2cnc3c(-c4ccnc(N)c4Cl)n[nH]c3n2)CC1 ... Not satisfied
COc1cc(Cl)cc(-c2n[nH]c3nc(N4CCC(C)(CN)CC4)cnc23)c1 ... Not satisfied

Would you kindly verify if IC50 of Clc1cccc(-c2n[nH]c3nc(N4CCC5(CCN5)CC4)cnc23)c1Cl is strictly less than 100 nM?
Satisfied

Would you kindly verify if IC50 of Nc1nccc(-c2n[nH]c3nc(N4CCC(N)(CO)CC4)cnc23)c1Cl is strictly less than 100 nM?
Not satisfied

Would you kindly verify if IC50 of CNc1nccc(-c2n[nH]c3nc(N4CCC(C)(CN)CC4)cnc23)c1Cl is strictly less than 100 nM?
Satisfied
